Origin of the recorded values: patent US20220073618A1

Listing of recorded pKd by entry.
study target: T1, PD-L1/Fc (UniProt Q9NZQ7 19-238, limits assumed)
T1 construct: not shown: Fc part
T1 sequence (Q9NZQ7 19-238 limits assumed): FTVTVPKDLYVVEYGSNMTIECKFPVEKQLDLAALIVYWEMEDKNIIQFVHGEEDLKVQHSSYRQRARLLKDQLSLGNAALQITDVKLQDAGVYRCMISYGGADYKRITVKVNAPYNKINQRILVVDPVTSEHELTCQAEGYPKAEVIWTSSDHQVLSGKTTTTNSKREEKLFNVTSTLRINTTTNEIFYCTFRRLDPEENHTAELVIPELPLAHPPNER
procedure text: SPR (Biacore 8K), prokaryotically expressed antibody as ligand, PD-L1/Fc as analyte, 1:1 binding model
Note on units: pKd is unitless, being -log10 of a concentration expressed in mol/L.

AH01946 (prokaryotically expressed antibody product) (Fab, V domains shown) VH: QVQLQESGPGLVKPSQTLSLTCTVSGYSITSGYTWHWIRQHPGKGLEWIGYIHYSGSTKYNPSLKSRVTISRDTSKNQFSLKLSSMTAADTAVYYCARNSLFASWGQGTLVTVSS VL: DIVLTQSPDSLAVSLGERATINCRASESVDTYGDSFMHWFQQKPGQPPKLLIYRASNLESGVPDRFSGSGSGTDFTLTISSVQAEDVAVYYCQQSNEAPYTFGGGTKLEIK; 11.03
AH01950 (prokaryotically expressed antibody product) (Fab, V domains shown) VH: QVQLQESGPGLVKPSQTLSLTCTVSGYSITSGYTWHWIRQHPGKGLEWIGYIHYSGSTKYNPSLKSRVTISRDTSKNQFSLKLSSVTAADTAVYYCARNSLFASWGQGTLVTVSS VL: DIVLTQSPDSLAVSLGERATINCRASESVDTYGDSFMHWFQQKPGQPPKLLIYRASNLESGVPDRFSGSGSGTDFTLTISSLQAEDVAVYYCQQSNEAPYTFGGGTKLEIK; 10.44
AH02030 (prokaryotically expressed antibody product) (Fab, V domains shown) VH: QVQLQESGPGLVKPSQTLSLTCTVTGYSITSGYTWHWIRQHPGKGLEWIGYIHYSGSTKYNPSLKSRFTITRDTSKNQFSLKLSSVTAADTAVYYCARNSLFASWGQGTLVTVSS VL: DIVLTQSPDSLAVSLGERATINCRASESVDTYGDSFMHWYQQKPGQPPKLLIYRASNLESGVPDRFSGSGSRTDFTLTISSLQAEDVAVYYCQQSNEAPYTFGGGTKLEIK; 10.36

In: Quick one: pKd for AH01963 (prokaryotically expressed antibody product) (Fab, V domains shown) VH: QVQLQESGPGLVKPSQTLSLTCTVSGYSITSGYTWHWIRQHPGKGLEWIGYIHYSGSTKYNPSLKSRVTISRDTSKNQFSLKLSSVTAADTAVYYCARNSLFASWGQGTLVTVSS VL: DIVLTQSPDSLAVSLGERATINCRASESVDTYGDSFMHWYQQKPGQPPKLLIYRASNLESGVPDRFSGSGSGTDFTLTISSVQAEDVAVYYCQQSNEAPYTFGGGTKLEIK ?
Out: 10.46

In: Need pKd of AH01964 (prokaryotically expressed antibody product) (Fab, V domains shown) VH: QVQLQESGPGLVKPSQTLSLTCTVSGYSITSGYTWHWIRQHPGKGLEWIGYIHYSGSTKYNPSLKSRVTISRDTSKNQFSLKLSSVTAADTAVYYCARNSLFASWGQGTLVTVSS VL: DIVMTQSPDSLAVSLGERATINCRASESVDTYGDSFMHWYQQKPGQPPKLLIYRASNLESGVPDRFSGSGSGTDFTLTISSLQAEDVAVYYCQQSNEAPYTFGGGTKL , thanks.
Out: 10.33
